I'd appreciate it if you could supply EC50 values for the items below.
Target: human mAChR M1 (Homo sapiens, UniProt P11229)
Sequence (P11229 1-460): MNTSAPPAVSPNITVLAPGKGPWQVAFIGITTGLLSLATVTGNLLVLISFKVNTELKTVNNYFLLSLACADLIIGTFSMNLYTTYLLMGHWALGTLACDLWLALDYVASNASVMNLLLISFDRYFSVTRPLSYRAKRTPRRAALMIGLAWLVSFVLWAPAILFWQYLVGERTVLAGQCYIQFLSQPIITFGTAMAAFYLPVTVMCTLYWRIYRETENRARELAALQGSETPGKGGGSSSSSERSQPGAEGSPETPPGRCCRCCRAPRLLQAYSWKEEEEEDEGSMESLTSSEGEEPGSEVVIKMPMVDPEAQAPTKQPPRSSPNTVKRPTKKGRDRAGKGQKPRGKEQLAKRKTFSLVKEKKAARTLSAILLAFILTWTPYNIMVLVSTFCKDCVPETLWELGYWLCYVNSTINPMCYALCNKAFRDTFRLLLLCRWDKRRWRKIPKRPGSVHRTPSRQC
Assay: mAChR M1 cell-based functional assay: calcium mobilization, positive allosteric modulator mode (increase in EC20 acetylcholine response)
Conditions: Table 2; human M1; read-out: Human M1 EC50
Express it in nM; write the number only.

QUERY: For the molecule shown here, O=C(N[C@@H]1CC[C@H]1O)c1cc(Cc2ccc(-n3cccn3)cc2)c2sccc2n1 [Compound 227] , give the reported EC50.
RESULT: 125

QUERY: What about Cc1ccc(Cc2cc(C(=O)N[C@@H]3CCC[C@H]3O)nc3c(C)csc23)cn1 [Compound 100] ?
RESULT: 654

QUERY: What about Cc1ccc(Cc2cc(C(=O)NC3CCCCC3)nc3c(C)csc23)cn1 [Compound 101] ?
RESULT: 4960

QUERY: What about Cc1ncc(Cc2cc(C(=O)N[C@@H]3CCC[C@H]3O)nc3ccsc23)s1 [Compound 133] ?
RESULT: 3620

QUERY: What about Cn1ccc(-c2ccc(Cc3cc(C(=O)NC4CC(F)C4)nc4ccn(C)c34)cn2)n1 (centres unmarked) [Compound 510] ?
RESULT: 4280

QUERY: What about Cn1ccc(-c2ccc(Cc3cc(C(=O)NC4CCOC(C)(C)C4)nc4ccn(C)c34)cn2)n1 (centres unmarked) [Compound 504] ?
RESULT: 1350

QUERY: What about Cn1cc(-c2ccc(Cc3cc(C(=O)N[C@H]4CCOC[C@@H]4O)nc4ccsc34)c(F)c2)cn1 [Compound 52] ?
RESULT: 1960

QUERY: What about Cc1nc(-c2ccc(Cc3cc(C(=O)N[C@@H]4CCC[C@H]4O)nc4ccsc34)cc2)cs1 [Compound 182] ?
RESULT: 183

QUERY: What about CO[C@@H]1CCCC[C@H]1NC(=O)c1cc(Cc2ccc(C)nc2)c2scc(C)c2n1 [Compound 106] ?
RESULT: 2200

QUERY: What about Cn1ccc2nc(C(=O)N[C@H]3CC[C@@H]3O)cc(Cc3ccc(-c4nccs4)cc3)c21 [Compound 482] ?
RESULT: 171

QUERY: What about Cc1csc2c(Cc3ccc(-n4cccn4)cc3)cc(C(=O)NC3CC4(COC4)C3)nc12 [Compound 315] ?
RESULT: 475

QUERY: What about O=C(N[C@H]1CCC[C@@H]1O)c1cc(Cc2ccc(-c3cncs3)cc2)c2sccc2n1 [Compound 397] ?
RESULT: 111

QUERY: What about O=C(NC1CC2(COC2)C1)c1cc(Cc2ccc(-c3cscn3)cc2)c2sccc2n1 [Compound 231] ?
RESULT: 68.7

QUERY: What about Cn1ccc(-c2ccc(Cc3cc(C(=O)NC4CCOCC4)nc4ccsc34)cc2)n1 [Compound 254] ?
RESULT: 142

QUERY: What about Cn1cc(-c2ccc(Cc3cc(C(=O)N[C@H]4CC[C@@H]4O)nc4ccsc34)cn2)cn1 [Compound 328] ?
RESULT: 197

QUERY: What about CN1CC(NC(=O)c2cc(Cc3ccc(-n4cccn4)cc3)c3sccc3n2)C1 [Compound 435] ?
RESULT: 2290

QUERY: What about Cn1cc(-c2ccc(Cc3cc(C(=O)N[C@H]4CCC[C@@H]4O)nc4ccsc34)c(F)c2)cn1 [Compound 56] ?
RESULT: 3260

QUERY: What about O=C(NCC1CCOC1)c1cc(Cc2ccc(-c3cncs3)cc2)c2sccc2n1 (centres unmarked) [Compound 396] ?
RESULT: 1060

QUERY: What about Cc1csc2c(Cc3ccc(-c4ccn(C)n4)cc3)cc(C(=O)N[C@H]3CCOC3)nc12 [Compound 306] ?
RESULT: 2920

QUERY: What about Cc1csc2c(Cc3ccc(-c4ccn(C)n4)cc3)cc(C(=O)NCC3CCO3)nc12 (centres unmarked) [Compound 310] ?
RESULT: 471

QUERY: What about CO[C@@H]1CCCC[C@H]1NC(=O)c1cc(Cc2ccc(-c3cn(C)nn3)cc2)c2sccc2n1 [Compound 156] ?
RESULT: 260

QUERY: What about Cn1ccc2nc(C(=O)N[C@H]3CCOC[C@@H]3O)cc(Cc3ccc(-c4nccs4)cc3)c21 [Compound 478] ?
RESULT: 6.24

QUERY: What about O=C(N[C@H]1CCOC[C@@H]1O)c1cc(Cc2ccc(-c3nccs3)cc2)c2sccc2n1 [Compound 294] ?
RESULT: 15.7

QUERY: What about O=C(N[C@@H]1CCC[C@H]1O)c1cc(Cc2ccc(C(F)(F)F)nc2)c2sccc2n1 [Compound 88] ?
RESULT: 503

###

I'd appreciate it if you could supply pEC50 values for the items below.
Target: human mAChR M1 (Homo sapiens, UniProt P11229)
Test: mAChR M1 cell-based functional assay: calcium mobilization, positive allosteric modulator mode (increase in EC20 acetylcholine response)
Conditions: Table 2; human M1; read-out: Human M1 EC50
For clarity, pEC50 is expressed as the negative log10 of concentration in mol/L.

QUERY: For the compound shown here, O=C(N[C@@H]1CCOC1)c1cc(Cc2ccc(-c3cncs3)cc2)c2sccc2n1 [Compound 400] , give the reported pEC50.
RESULT: 5.38

QUERY: What about COCC(C)NC(=O)c1cc(Cc2ccc(-c3ccn(C)n3)nc2)c2sccc2n1 (centres unmarked) [Compound 424] ?
RESULT: 5.07

QUERY: What about Cn1ccc2nc(C(=O)NC3CC(F)C3)cc(Cc3ccc(-c4nccs4)cc3)c21 (centres unmarked) [Compound 488] ?
RESULT: 5.94

QUERY: What about Cn1ccc(-c2ccc(Cc3cc(C(=O)N[C@H]4CCCC[C@@H]4O)nc4ccsc34)cn2)n1 [Compound 354] ?
RESULT: 7.83

QUERY: What about Cn1ccc2nc(C(=O)NC3COC3)cc(Cc3ccc(-c4cscn4)cc3)c21 [Compound 467] ?
RESULT: 5.53

QUERY: What about O=C(N[C@@H]1CCOC1)c1cc(Cc2ccc(-c3nccs3)cc2)c2sccc2n1 [Compound 368] ?
RESULT: 5.64

QUERY: What about Cc1ccc(Cc2cc(C(=O)NC34CC5CC(CC(O)(C5)C3)C4)nc3c(C)csc23)cn1 [Compound 108] ?
RESULT: 5.28

###

Molecular target: human mAChR M1 (Homo sapiens)
Sequence (P11229 1-460): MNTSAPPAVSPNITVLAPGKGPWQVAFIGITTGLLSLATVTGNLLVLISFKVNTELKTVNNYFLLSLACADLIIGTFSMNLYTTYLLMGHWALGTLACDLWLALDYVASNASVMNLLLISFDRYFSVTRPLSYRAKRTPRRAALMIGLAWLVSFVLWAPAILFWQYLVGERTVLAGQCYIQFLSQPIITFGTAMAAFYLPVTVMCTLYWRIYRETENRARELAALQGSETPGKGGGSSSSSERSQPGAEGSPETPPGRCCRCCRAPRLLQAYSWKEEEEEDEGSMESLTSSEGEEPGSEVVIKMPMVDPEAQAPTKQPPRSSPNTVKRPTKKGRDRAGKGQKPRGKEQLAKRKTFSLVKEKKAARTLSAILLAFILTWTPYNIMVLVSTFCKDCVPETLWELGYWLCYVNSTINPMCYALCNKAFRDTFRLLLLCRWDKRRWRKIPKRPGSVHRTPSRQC
Assay: mAChR M1 cell-based functional assay: calcium mobilization, positive allosteric modulator mode (increase in EC20 acetylcholine response)
Details: Table 2; human M1; read-out: Human M1 EC50
Protocol: a. Cell Lines Expressing Muscarinic Acetylcholine Receptors Chinese hamster ovary (CHO-K1) cells stably expressing rat (r)M1 were purchased from the American Type Culture Collection and cultured according to their indicated protocol. […] Calcium flux was measured using the Functional Drug Screening System (FDSS) 6000 (Hamamatsu Corporation, Tokyo, Japan) as an increase in the fluorescent static ratio. […]
pEC50: −log10 of the molar value.
Given measured pEC50, output Criterion met if it is greater than or equal to 6 and Criterion not met if not.

QUERY: Given the entry O=C(N[C@H]1CCOC[C@@H]1O)c1cc(Cc2ccc(-n3cccn3)cc2)c2sccc2n1 , answer whether its pEC50 meets or surpasses 6.
RESULT: Criterion met

QUERY: What about CC(C)(C#N)NC(=O)c1cc(Cc2ccc(-n3cccn3)cc2)c2sccc2n1 ?
RESULT: Criterion not met

QUERY: What about Cc1ncc(Cc2cc(C(=O)NC3CCOCC3)nc3ccsc23)s1 ?
RESULT: Criterion not met

QUERY: What about Cc1nc(-c2ccc(Cc3cc(C(=O)N[C@H]4CCOC4)nc4ccsc34)cc2)co1 ?
RESULT: Criterion not met

QUERY: What about Cn1ccc(-c2ccc(Cc3cc(C(=O)N[C@@H]4CC[C@H]4O)nc4ccsc34)cc2)n1 ?
RESULT: Criterion met

QUERY: What about Cn1ccc(-c2ccc(Cc3cc(C(=O)N[C@H]4CCCC[C@@H]4O)nc4ccsc34)cc2)n1 ?
RESULT: Criterion met

QUERY: What about CC1COCCC1NC(=O)c1cc(Cc2ccc(-c3nccs3)cc2)c2sccc2n1 (centres unmarked) ?
RESULT: Criterion met

QUERY: What about CC1CC(NC(=O)c2cc(Cc3ccc(-c4cncs4)cc3)c3sccc3n2)CC(C)O1 (centres unmarked) ?
RESULT: Criterion not met

QUERY: What about O=C(N[C@H]1CCOC1)c1cc(Cc2ccc(-c3cncs3)cc2)c2sccc2n1 ?
RESULT: Criterion not met

QUERY: What about COCC(C)NC(=O)c1cc(Cc2ccc(-c3cnn(C)c3)nc2)c2sccc2n1 (centres unmarked) ?
RESULT: Criterion met

QUERY: What about Cc1csc2c(Cc3ccc(-n4cccn4)cc3)cc(C(=O)NC3CCCCNC3=O)nc12 (centres unmarked) ?
RESULT: Criterion met

QUERY: What about Cn1ccc(-c2ccc(Cc3cc(C(=O)N[C@H]4CCCC[C@@H]4O)nc4ccn(C)c34)cn2)n1 ?
RESULT: Criterion met

QUERY: What about Cc1nc(-c2ccc(Cc3cc(C(=O)NC4COC4)nc4ccsc34)cc2)co1 ?
RESULT: Criterion not met

QUERY: What about Cn1cc(-c2ccc(Cc3cc(C(=O)NC4CC5(COC5)C4)nc4ccsc34)cn2)cn1 ?
RESULT: Criterion met

QUERY: What about Cc1ccc(C(=O)c2cc(C(=O)N[C@@H]3CCCC[C@H]3O)nc3ccsc23)cn1 ?
RESULT: Criterion not met
